- assay.info: label from the status in PepcDB records
experimental.readout: protein production

RRLVTYVLVHGTHSAGAFWTPIARELGLRGHRVVMVDQPRHGAEAFVAESYQRQDLAAMAVEPSPLKGLGLDDYEARVAGIVRRAARNGPVVLVGHSLGGVSVSRVGEAVPHLLHHICYMAAFCPSRVLPTADACTAAPENANAVSPVELTVGDPDRLGVLRLNFRTGVSGELALLKEMICADYPDADFRRILAGMQTDEPVAAYAGRAVGRAGRWGRIPRTYLRFGRDRTIATALQDRVIAEADAATPGNGFRVHDFPEASHVGPLDPTPVADVLDRLA :: failed
MALDRIEAMRAFCRIVELGSFTRAADSLGVASTTLSGQIQVLERLLDIRLLHRSTRKVHPTNEGLAYYQRARKVIEDIDDLEASVSISRAVVKGRVAVEMPTPVGIHLVIPALHGFTERYPHIHLDIGCSERVVGLMQEGIDCAIRGGDIADQDLIARRVGQMRFCLCAAPAYLDAHPAITHPAQLARHRHLGFRFPGTGKRFVATLRKQRDSHPLDHPPHVYFNNGTAVTAGAAAGLGIAALPRAEVRHLLEAGALREILPDWTLTSMPMSVVYPQTHQLSARVQVFVQWVAELFEGDGLWKDA :: failed
